- PROTOCOL DETAILS: Selectivity index, ratio of IC50 for cytotoxicity against human MCF-10A cells to IC50 for antiproliferative activity against human MDA-MB-231 cells
- Type: toxicity, cell-based
- EXPERIMENTAL CONDITIONS: MCF-10A cells versus MDA-MB-231 cells, read-out: Ratio IC50
Reported selectivity ratio values follow for various compounds

Please review the entries below; each comes with its answer.
CC(=O)O[C@H]1C(=O)[C@@]2(C)[C@H]([C@H](OC(=O)c3ccccc3)[C@]3(O)C[C@H](OC(=O)[C@H](O)[C@@H](NC(=O)c4ccccc4)c4ccccc4)C(C)=C1C3(C)C)[C@]1(OC(C)=O)CO[C@@H]1C[C@@H]2O = 1.7
CC[C@H]1O[C@@]2(C)[C@H](OC(C)=O)[C@@]1(C)O[C@@H](/C=C/C=C/C=C/c1oc(=O)cc(OC)c1C)[C@@H]2OC(=O)CCCC(=O)OCc1c(-c2ccc(C)cc2)no[n+]1[O-] = > 8
CC[C@H]1O[C@@]2(C)[C@H](OC(C)=O)[C@@]1(C)O[C@@H](/C=C/C=C/C=C/c1oc(=O)cc(OC)c1C)[C@@H]2OC(=O)CCCC(=O)OCc1c(-c2ccc(F)cc2)no[n+]1[O-] = > 7
CC[C@H]1O[C@@]2(C)[C@H](OC(C)=O)[C@@]1(C)O[C@@H](/C=C/C=C/C=C/c1oc(=O)cc(OC)c1C)[C@H]2OC(=O)CCC(=O)OCCCCOc1no[n+]([O-])c1S(=O)(=O)c1ccccc1 = > 119

Moving on to another compound below.
[in] So what does the record say about selectivity ratio for CC[C@H]1O[C@@]2(C)[C@H](OC(C)=O)[C@@]1(C)O[C@@H](/C=C/C=C/C=C/c1oc(=O)cc(OC)c1C)[C@@H]2OC(=O)CCCC(=O)OCc1c(-c2ccc(C(F)(F)F)cc2)no[n+]1[O-] ?
[out] > 10

====

- Test system: 4T1
- PROTOCOL DETAILS: Antiproliferative activity against mouse 4T1 cells assessed as reduction in cell viability incubated for 72 hrs by MTT assay
- Assay type: functional, cell-based
- EXPERIMENTAL CONDITIONS: 4T1, 72 h
MEASUREMENT LABEL: pIC50
Convention used: pIC50 is expressed as -log10 of the molar concentration.

These recorded examples may help you get a feel for the data.
CC[C@H]1O[C@@]2(C)[C@H](OC(C)=O)[C@@]1(C)O[C@@H](/C=C/C=C/C=C/c1oc(=O)cc(OC)c1C)[C@@H]2OC(=O)CCC(=O)OCC#CCOc1no[n+]([O-])c1S(=O)(=O)c1ccccc1 = 5.68
CC[C@H]1O[C@@]2(C)[C@H](OC(C)=O)[C@@]1(C)O[C@@H](/C=C/C=C/C=C/c1oc(=O)cc(OC)c1C)[C@@H]2OC(=O)CCCC(=O)OCc1c(-c2ccc(OC)cc2)no[n+]1[O-] = 5.17
CC[C@H]1O[C@@]2(C)[C@H](OC(C)=O)[C@@]1(C)O[C@@H](/C=C/C=C/C=C/c1oc(=O)cc(OC)c1C)[C@@H]2OC(=O)CCC(=O)ONC(=O)CCCOc1no[n+]([O-])c1S(=O)(=O)c1ccccc1 = 5.81
CC[C@H]1O[C@@]2(C)[C@H](OC(C)=O)[C@@]1(C)O[C@@H](/C=C/C=C/C=C/c1oc(=O)cc(OC)c1C)[C@@H]2OC(=O)CCC(=O)ONC(=O)CCCCOc1no[n+]([O-])c1S(=O)(=O)c1ccccc1 = 5.57
CC[C@H]1O[C@@]2(C)[C@H](OC(C)=O)[C@@]1(C)O[C@@H](/C=C/C=C/C=C/c1oc(=O)cc(OC)c1C)[C@@H]2OC(=O)CCC(=O)ONC(=O)COCCOc1no[n+]([O-])c1S(=O)(=O)c1ccccc1 = 5.47
CC[C@H]1O[C@@]2(C)[C@H](OC(C)=O)[C@@]1(C)O[C@@H](/C=C/C=C/C=C/c1oc(=O)cc(OC)c1C)[C@H]2OC(=O)CCC(=O)OCCCCCOc1no[n+]([O-])c1S(=O)(=O)c1ccccc1 = 5.95
CC[C@H]1O[C@@]2(C)[C@H](OC(C)=O)[C@@]1(C)O[C@@H](/C=C/C=C/C=C/c1oc(=O)cc(OC)c1C)[C@@H]2OC(=O)CCCCCCCOc1no[n+]([O-])c1S(=O)(=O)c1ccccc1 = 5.91
CC[C@H]1O[C@@]2(C)[C@H](OC(C)=O)[C@@]1(C)O[C@@H](/C=C/C=C/C=C/c1oc(=O)cc(OC)c1C)[C@@H]2OC(=O)CCCC(=O)OCc1c(-c2ccc(Br)cc2)no[n+]1[O-] = 5.34
CC[C@H]1O[C@@]2(C)[C@H](OC(C)=O)[C@@]1(C)O[C@@H](/C=C/C=C/C=C/c1oc(=O)cc(OC)c1C)[C@@H]2OC(=O)CCC(=O)OC/C=C/COc1no[n+]([O-])c1S(=O)(=O)c1ccccc1 = 6.06
CC[C@H]1O[C@@]2(C)[C@H](OC(C)=O)[C@@]1(C)O[C@@H](/C=C/C=C/C=C/c1oc(=O)cc(OC)c1C)[C@H]2OC(=O)CCC(=O)OCCCCOc1no[n+]([O-])c1S(=O)(=O)c1ccccc1 = 6.26

[in] // returns reported pIC50 for input CC[C@H]1O[C@@]2(C)[C@H](OC(C)=O)[C@@]1(C)O[C@@H](/C=C/C=C/C=C/c1oc(=O)cc(OC)c1C)[C@H]2OC(=O)CCC(=O)OCCCCCCOc1no[n+]([O-])c1S(=O)(=O)c1ccccc1
[out] 6.14

[in] Sample CC[C@H]1O[C@@]2(C)[C@H](OC(C)=O)[C@@]1(C)O[C@@H](/C=C/C=C/C=C/c1oc(=O)cc(OC)c1C)[C@@H]2OC(=O)CCC(=O)OCCOCCOc1no[n+]([O-])c1S(=O)(=O)c1ccccc1 — what was its pIC50?
[out] 5.57

[in] # input compound: CC[C@H]1O[C@@]2(C)[C@H](OC(C)=O)[C@@]1(C)O[C@@H](/C=C/C=C/C=C/c1oc(=O)cc(OC)c1C)[C@@H]2OC(=O)CCCC(=O)OCc1c(-c2ccc(C)cc2)no[n+]1[O-] ; wanted: its pIC50
[out] 5.15

[in] If you can, please state the reported pIC50 value of CC[C@H]1O[C@@]2(C)[C@H](OC(C)=O)[C@@]1(C)O[C@@H](/C=C/C=C/C=C/c1oc(=O)cc(OC)c1C)[C@H]2OC(=O)CCC(=O)OCCc1ccc(Oc2no[n+]([O-])c2S(=O)(=O)c2ccccc2)cc1 .
[out] 5.25

[in] Quick check: pIC50 of CC[C@H]1O[C@@]2(C)[C@H](OC(C)=O)[C@@]1(C)O[C@@H](/C=C/C=C/C=C/c1oc(=O)cc(OC)c1C)[C@@H]2OC(=O)CCC(=O)ONC(=O)CCCCCOc1no[n+]([O-])c1S(=O)(=O)c1ccccc1 ?
[out] 5.72

[in] Which pIC50 value belongs to CC[C@H]1O[C@@]2(C)[C@H](OC(C)=O)[C@@]1(C)O[C@@H](/C=C/C=C/C=C/c1oc(=O)cc(OC)c1C)[C@@H]2O ?
[out] 5.48

[in] Name the recorded pIC50 for CC[C@H]1O[C@@]2(C)[C@H](OC(C)=O)[C@@]1(C)O[C@@H](/C=C/C=C/C=C/c1oc(=O)cc(OC)c1C)[C@@H]2OC(=O)CCCCCOc1no[n+]([O-])c1S(=O)(=O)c1ccccc1 .
[out] 5.67

[in] Would you mind telling me what pIC50 value was observed for CC(=O)O[C@H]1C(=O)[C@@]2(C)[C@H]([C@H](OC(=O)c3ccccc3)[C@]3(O)C[C@H](OC(=O)[C@H](O)[C@@H](NC(=O)c4ccccc4)c4ccccc4)C(C)=C1C3(C)C)[C@]1(OC(C)=O)CO[C@@H]1C[C@@H]2O ?
[out] 5.42

[in] Using the record for CC[C@H]1O[C@@]2(C)[C@H](OC(C)=O)[C@@]1(C)O[C@@H](/C=C/C=C/C=C/c1oc(=O)cc(OC)c1C)[C@@H]2OC(=O)CCCC(=O)OCc1c(-c2ccc(C(F)(F)F)cc2)no[n+]1[O-] , report its pIC50.
[out] 5.08

[in] Reported pIC50 for CC[C@H]1O[C@@]2(C)[C@H](OC(C)=O)[C@@]1(C)O[C@@H](/C=C/C=C/C=C/c1oc(=O)cc(OC)c1C)[C@@H]2OC(=O)COCCOCCOc1no[n+]([O-])c1S(=O)(=O)c1ccccc1 : what is it?
[out] 6.11
